From: paper PMC12810351

study.system: UniProtKB P00690
test.method.notes: starch hydrolysis by α-amylase monitored by isothermal titration calorimetry (ITC)
Type: biochemical
setup.conditions: substrate starch, ITC; calculated by eq (6), substrate concentration of 1 M (IC50 equivalent to Kiu); read-out: IC50*
Friendly reminder: IC50 below 300 µM is 1.0, at or above is 0.0.

Some entries whose results are on file:
compound: O=C(/C=C/c1ccc(O)c(O)c1)O[C@@H]1C[C@](O)(C(=O)O)C[C@@H](O)[C@H]1O [CA, Chlorogenic acid]
study.system: UniProtKB P00690
label.value: 1.0
//
compound: C[C@@H]1O[C@@H](OC[C@H]2O[C@@H](Oc3c(-c4ccc(O)c(O)c4)oc4cc(O)cc(O)c4c3=O)[C@H](O)[C@@H](O)[C@@H]2O)[C@H](O)[C@H](O)[C@H]1O [rutin, quercetin-3-O-rutinoside]
study.system: UniProtKB P00690
label.value: 0.0
//
compound: Oc1cc(O)c2c(c1)O[C@H](c1ccc(O)c(O)c1)[C@H](O)[C@H]2c1c(O)cc(O)c2c1O[C@H](c1ccc(O)c(O)c1)[C@@H](O)C2 [PC B1, procyanidin B1]
study.system: UniProtKB P00690
label.value: 1.0
//
compound: O=c1c(O[C@@H]2O[C@H](CO)[C@@H](O)[C@H](O)[C@H]2O)c(-c2ccc(O)c(O)c2)oc2cc(O)cc(O)c12 [Q-3-glc, quercetin-3-O-glucoside]
study.system: UniProtKB P00690
label.value: 1.0
//
compound: Oc1cc(O)c2c(c1)O[C@H](c1ccc(O)c(O)c1)[C@H](O)C2 [EC, (−)-epicatechin]
study.system: UniProtKB P00690
label.value: 0.0
//
compound: Oc1cc(O)c2c(c1)O[C@H](c1ccc(O)c(O)c1)[C@H](O)[C@H]2c1c(O)cc(O)c2c1O[C@H](c1ccc(O)c(O)c1)[C@H](O)C2 [PC B2, procyanidin B2]
study.system: UniProtKB P00690
label.value: 1.0

Please let me know if OC[C@H]1O[C@@H](Oc2cc3c(O)cc(O)cc3[o+]c2-c2ccc(O)c(O)c2)[C@H](O)[C@@H](O)[C@@H]1O [CYD-3-glc, cyanidin-3-O-glucoside] shows IC50 below 300 µM. 1.0

Is it true that IC50 reported for COc1cc(/C=C/C(=O)O)ccc1O [FA, ferulic acid] is less than 300 µM? 0.0

* * *

study.system: porcine pancreatic α-amylase (Sus scrofa, UniProt P00690)
Sequence (P00690 16-511): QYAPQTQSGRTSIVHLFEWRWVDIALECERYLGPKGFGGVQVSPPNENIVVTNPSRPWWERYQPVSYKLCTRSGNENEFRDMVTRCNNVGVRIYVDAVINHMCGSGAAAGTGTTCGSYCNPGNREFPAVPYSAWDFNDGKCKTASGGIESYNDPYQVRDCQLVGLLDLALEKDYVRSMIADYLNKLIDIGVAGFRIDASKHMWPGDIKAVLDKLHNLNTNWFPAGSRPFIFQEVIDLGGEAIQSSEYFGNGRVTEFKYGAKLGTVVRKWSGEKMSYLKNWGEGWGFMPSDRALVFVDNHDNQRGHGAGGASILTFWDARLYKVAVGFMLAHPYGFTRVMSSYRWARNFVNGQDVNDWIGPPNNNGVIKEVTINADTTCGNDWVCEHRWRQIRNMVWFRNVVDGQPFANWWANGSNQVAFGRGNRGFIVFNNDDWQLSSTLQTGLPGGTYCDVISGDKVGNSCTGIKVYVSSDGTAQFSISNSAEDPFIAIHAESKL
test.method.notes: starch hydrolysis by α-amylase monitored by isothermal titration calorimetry (ITC)
Assay type: biochemical
setup.conditions: calculated based on the mass concentration
Quick reference for α (Kic/Kiu) among some compounds

Known results for compounds:
compound: O=C(/C=C/c1ccc(O)c(O)c1)O[C@@H]1C[C@](O)(C(=O)O)C[C@@H](O)[C@H]1O
α (Kic/Kiu): 0.70 ± 0.03
//
compound: OC[C@H]1O[C@@H](Oc2cc3c(O)cc(O)cc3[o+]c2-c2ccc(O)c(O)c2)[C@H](O)[C@@H](O)[C@@H]1O [CYD-3-glc, cyanidin-3-O-glucoside]
α (Kic/Kiu): 0.71 ± 0.05

Give α (Kic/Kiu) for `Oc1cc(O)c2c(c1)O[C@H](c1ccc(O)c(O)c1)[C@H](O)[C@H]2c1c(O)cc(O)c2c1O[C@H](c1ccc(O)c(O)c1)[C@@H](O)C2` tested on porcine pancreatic α-amylase (Sus scrofa, UniProt P00690). 0.71 ± 0.20

* * *

study.system: porcine pancreatic α-amylase (Sus scrofa, UniProt P00690)
test.method.notes: starch hydrolysis by α-amylase monitored by isothermal titration calorimetry (ITC)
Type: biochemical
setup.conditions: uncompetitive inhibition constant; substrate starch, ITC; 100 μM polyphenol (EGCG 25 μM); read-out: Kiu
measured.endpoint: pKi
Scale explanation: pKi corresponds to minus log10 of a concentration expressed in moles per litre.

compound: COc1cc(/C=C/C(=O)O)ccc1O
pKi: 2.63
--
compound: C[C@@H]1O[C@@H](OC[C@H]2O[C@@H](Oc3c(-c4ccc(O)c(O)c4)oc4cc(O)cc(O)c4c3=O)[C@H](O)[C@@H](O)[C@@H]2O)[C@H](O)[C@H](O)[C@H]1O [rutin, quercetin-3-O-rutinoside]
pKi: 2.81
--
compound: Oc1cc(O)c2c(c1)O[C@H](c1ccc(O)c(O)c1)[C@H](O)[C@H]2c1c(O)cc(O)c2c1O[C@H](c1ccc(O)c(O)c1)[C@@H](O)C2
pKi: 3.66

Let's switch to this compound now.
State its pKi for this compound: `Oc1cc(O)c2c(c1)O[C@H](c1ccc(O)c(O)c1)[C@H](O)[C@H]2c1c(O)cc(O)c2c1O[C@H](c1ccc(O)c(O)c1)[C@H](O)C2` 3.76

* * *

Items are presented alongside their recorded log10(Ki).
study.system: porcine pancreatic α-amylase (Sus scrofa)
test.method.notes: starch hydrolysis by α-amylase monitored by isothermal titration calorimetry (ITC)
Format: biochemical
setup.conditions: calculated based on the mass concentration; read-out: Kic [g/L] (converted)
Log10 applied to Ki; unit prior to transform: µM.

Look over these answered cases.
compound: C[C@@H]1O[C@@H](OC[C@H]2O[C@@H](Oc3c(-c4ccc(O)c(O)c4)oc4cc(O)cc(O)c4c3=O)[C@H](O)[C@@H](O)[C@@H]2O)[C@H](O)[C@H](O)[C@H]1O [rutin, quercetin-3-O-rutinoside]
result: 2.56

compound: O=c1c(O[C@@H]2O[C@H](CO)[C@@H](O)[C@H](O)[C@H]2O)c(-c2ccc(O)c(O)c2)oc2cc(O)cc(O)c12 [Q-3-glc, quercetin-3-O-glucoside]
result: 2.03

compound: OC[C@H]1O[C@@H](Oc2cc3c(O)cc(O)cc3[o+]c2-c2ccc(O)c(O)c2)[C@H](O)[C@@H](O)[C@@H]1O [CYD-3-glc, cyanidin-3-O-glucoside]
result: 2.19

compound: O=C(/C=C/c1ccc(O)c(O)c1)O[C@@H]1C[C@](O)(C(=O)O)C[C@@H](O)[C@H]1O
result: 2.30

compound: Oc1cc(O)c2c(c1)O[C@H](c1ccc(O)c(O)c1)[C@H](O)[C@H]2c1c(O)cc(O)c2c1O[C@H](c1ccc(O)c(O)c1)[C@@H](O)C2
result: 2.19

Consider the compound `COc1cc(/C=C/C(=O)O)ccc1O` and give its recorded log10(Ki). 3.09

Note log10(Ki) for the compound shown: O=C(O[C@@H]1Cc2c(O)cc(O)cc2O[C@@H]1c1cc(O)c(O)c(O)c1)c1cc(O)c(O)c(O)c1 [EGCG, epigallocatechin gallate] 1.34

Output measured log10(Ki) for this item: `O=C(CCc1ccc(O)cc1)c1c(O)cc(O)cc1O[C@@H]1O[C@H](CO)[C@@H](O)[C@H](O)[C@H]1O` 2.61
